system: Rho (MRTF/SRF-regulated gene transcription, SRE-Luciferase); experiment: SRE-Luciferase reporter, Rho inhibition; assay type: cell-based
outcome.measure: IC50 (µM)

In [3]: df
Out[3]:
                       smiles_string                            assayed_target  outcome_measure  reported
0  O=C(O)CCSc1nnc(-c2ccc(Cl)cc2Cl)o1  Rho (MRTF/SRF-regulated gene transcription, SRE-Luciferase)             IC50     0.004

(a) O=C(O)CCSc1nnc(-c2cccnc2)o1
(b) COc1c(Cl)ccc(-c2nnc(SCCC(=O)O)o2)c1Cl
Exercise: # min-compare on IC50 between a and b Kindly state the label of the option you pick.
Key: b
(b: 0.0086 µM, a: 87 µM)

* * *

test system: Rho (MRTF/SRF-regulated gene transcription, SRE-Luciferase); assay: SRE-Luciferase reporter, Rho inhibition; format: cell-based
pIC50: −log10 of the molar value.
outcome.measure: pIC50

Please review the following examples before continuing.
>>> df
                           smiles_string  outcome_measure  reported
0    O=C(O)CCCCSc1nnc(-c2ccc(Cl)cc2Cl)o1            pIC50      8.52
1      O=C(O)CCOc1nnc(-c2ccc(Cl)cc2Cl)s1            pIC50      4.62
2       COc1cc(C)ccc1-c1nnc(SCCC(=O)O)o1            pIC50      7.64
3  COc1cc(Cl)cc(Cl)c1-c1nnc(SCCC(=O)O)o1            pIC50      5.00
4          Cc1ccc(-c2nnc(SCC(=O)O)o2)cc1            pIC50      5.17
5       O=C(O)CCSc1nnc(-c2ccc(F)cc2Cl)o1            pIC50      7.60

(1) O=C(O)CCSc1nnc(-c2cccc(Br)c2)o1
(2) Cc1cccc(-c2nnc(SCC(=O)O)o2)c1
Exercise: Sort 1 and 2 by pIC50 descending and give the first. Kindly state the label of the option you pick.
Key: 1

* * *

tested on: Rho (MRTF/SRF-regulated gene transcription, SRE-Luciferase); experiment: SRE-Luciferase reporter, Rho inhibition; type: cell-based
pIC50: −log10 of the molar value.
outcome.measure: pIC50

Please review the following examples before continuing.
In [3]: df
Out[3]:
                           smiles_string  reported
0          Cc1cccc(-c2nnc(SCC(N)=O)o2)c1    < 4.00
1  CCCN(CCC)C(=O)CSc1nnc(-c2cccc(C)c2)o1    < 4.00

Read the next record carefully.
Exercise: Fill in: pIC50 of "O=C(O)CCCc1nnc(-c2ccc(Cl)cc2Cl)o1" is ___
Key: < 4.00

* * *

system: Rho (MRTF/SRF-regulated gene transcription, SRE-Luciferase); assay: SRE-Luciferase reporter, Rho inhibition; assay type: cell-based
pIC50: −log10 of the molar value.
outcome.measure: pIC50

Please review the following examples before continuing.
                        smiles_string                            assayed_target  reported
0  COc1ccc(-c2nnc(SCCC(=O)O)[nH]2)cc1  Rho (MRTF/SRF-regulated gene transcription, SRE-Luciferase)    < 4.00
1         Cc1occc1-c1nnc(SCCC(=O)O)o1  Rho (MRTF/SRF-regulated gene transcription, SRE-Luciferase)    < 4.00
2         O=C(O)CCSc1nnc(-c2ccncc2)o1  Rho (MRTF/SRF-regulated gene transcription, SRE-Luciferase)    < 4.00
3     O=C(O)CCSc1nc2ccccc2n1Cc1ccccc1  Rho (MRTF/SRF-regulated gene transcription, SRE-Luciferase)    < 4.00
4  CCOC(=O)CSc1nnc(-c2ccc(Cl)cc2Cl)o1  Rho (MRTF/SRF-regulated gene transcription, SRE-Luciferase)    < 4.00

Exercise: Fill in: pIC50 of "c1ccc(-c2nnc(SCCC3OCCCO3)o2)cc1" is ___
Key: < 4.00

Exercise: Fill in: pIC50 of "CC(C)(C)NC(=O)CSc1nnc(-c2ccc(Cl)cc2Cl)o1" is ___
Key: < 4.00

Where do these numbers come from? They come from patent US20150250769A1.
